Test Target: T1, extracellular domain of recombinant glycosylated FcγRIa/CD64 (R&D Systems) labeled with FITC (human, UniProt P12314 16-292, FITC-labeled; glycosylated)
T1 construct: extracellular domain; it is not restated for the bought reagent; also called FcγRIa-FITC; FcγRI-FITC
T1 sequence (P12314 16-292): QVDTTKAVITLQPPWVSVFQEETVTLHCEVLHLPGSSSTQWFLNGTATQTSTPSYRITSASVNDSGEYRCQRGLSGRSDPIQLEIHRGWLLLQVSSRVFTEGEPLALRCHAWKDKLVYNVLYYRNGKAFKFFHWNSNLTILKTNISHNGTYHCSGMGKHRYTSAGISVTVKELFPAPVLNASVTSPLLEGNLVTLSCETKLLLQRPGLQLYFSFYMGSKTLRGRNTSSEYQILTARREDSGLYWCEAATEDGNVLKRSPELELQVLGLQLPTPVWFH
Assay Details: flow cytometry of E. coli spheroplasts expressing the Fc fragment, labeled with FcγRIa-FITC
Endpoint: binding result

Fc609 (other, Aglycosylated Fc fragment (E. coli, pPelBFLAG), assayed on spheroplasts; not shown: C-terminal FLAG tag from pPelBFLAG) DKTHTCPPCPAPELLGGPSVFLFPPKPKDTLMISRTPEVTCVVVDVSHEDPEVKFNWYVDGVEVHNAKTKPREEQYNSTYRVVSVLTVLHQDWLNGKEYKCKVSNKALPAPIEKTISRAKVQPREPQVYTLPPSRDELTKNQVSLTCLVKGFYPSDIAVEWVSNGQPENNYKTTPPVLDSDGSFFLYSKLTVDKSRWQQGNVFLCSVIHEALHDHYTQKSLSLSPGK ... binds

Just for reference, patent US20100330076A1 is where these values come from.
